assayed_system: α4β7 (Homo sapiens, UniProt P13612+P26010)
Sequence (P13612 34-1032): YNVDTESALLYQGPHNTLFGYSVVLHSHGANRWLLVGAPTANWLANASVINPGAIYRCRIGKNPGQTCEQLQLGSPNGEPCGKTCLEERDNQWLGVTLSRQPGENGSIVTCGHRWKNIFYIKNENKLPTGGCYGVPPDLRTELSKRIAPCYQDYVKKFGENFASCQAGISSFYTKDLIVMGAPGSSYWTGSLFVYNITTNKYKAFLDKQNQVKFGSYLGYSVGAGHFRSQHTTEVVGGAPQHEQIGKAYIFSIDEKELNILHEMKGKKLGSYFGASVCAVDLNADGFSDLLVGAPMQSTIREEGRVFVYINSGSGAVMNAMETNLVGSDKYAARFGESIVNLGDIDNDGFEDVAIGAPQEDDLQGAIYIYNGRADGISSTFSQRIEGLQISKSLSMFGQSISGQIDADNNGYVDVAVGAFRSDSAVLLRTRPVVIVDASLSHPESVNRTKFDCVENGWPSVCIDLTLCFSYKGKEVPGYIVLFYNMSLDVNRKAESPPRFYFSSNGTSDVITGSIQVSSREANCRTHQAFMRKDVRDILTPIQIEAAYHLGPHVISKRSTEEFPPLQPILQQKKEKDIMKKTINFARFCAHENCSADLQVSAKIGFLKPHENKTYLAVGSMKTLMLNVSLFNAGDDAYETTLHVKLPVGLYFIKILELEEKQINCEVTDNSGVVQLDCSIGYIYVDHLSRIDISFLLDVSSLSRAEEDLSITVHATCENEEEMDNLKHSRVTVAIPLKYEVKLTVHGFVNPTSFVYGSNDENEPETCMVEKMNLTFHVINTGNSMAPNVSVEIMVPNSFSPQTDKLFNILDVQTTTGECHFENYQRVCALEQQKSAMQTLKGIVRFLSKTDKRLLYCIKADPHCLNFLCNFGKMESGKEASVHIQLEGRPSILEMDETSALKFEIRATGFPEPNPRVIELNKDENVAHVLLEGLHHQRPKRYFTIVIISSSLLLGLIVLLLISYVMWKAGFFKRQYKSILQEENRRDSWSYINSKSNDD
Sequence (P26010 20-798): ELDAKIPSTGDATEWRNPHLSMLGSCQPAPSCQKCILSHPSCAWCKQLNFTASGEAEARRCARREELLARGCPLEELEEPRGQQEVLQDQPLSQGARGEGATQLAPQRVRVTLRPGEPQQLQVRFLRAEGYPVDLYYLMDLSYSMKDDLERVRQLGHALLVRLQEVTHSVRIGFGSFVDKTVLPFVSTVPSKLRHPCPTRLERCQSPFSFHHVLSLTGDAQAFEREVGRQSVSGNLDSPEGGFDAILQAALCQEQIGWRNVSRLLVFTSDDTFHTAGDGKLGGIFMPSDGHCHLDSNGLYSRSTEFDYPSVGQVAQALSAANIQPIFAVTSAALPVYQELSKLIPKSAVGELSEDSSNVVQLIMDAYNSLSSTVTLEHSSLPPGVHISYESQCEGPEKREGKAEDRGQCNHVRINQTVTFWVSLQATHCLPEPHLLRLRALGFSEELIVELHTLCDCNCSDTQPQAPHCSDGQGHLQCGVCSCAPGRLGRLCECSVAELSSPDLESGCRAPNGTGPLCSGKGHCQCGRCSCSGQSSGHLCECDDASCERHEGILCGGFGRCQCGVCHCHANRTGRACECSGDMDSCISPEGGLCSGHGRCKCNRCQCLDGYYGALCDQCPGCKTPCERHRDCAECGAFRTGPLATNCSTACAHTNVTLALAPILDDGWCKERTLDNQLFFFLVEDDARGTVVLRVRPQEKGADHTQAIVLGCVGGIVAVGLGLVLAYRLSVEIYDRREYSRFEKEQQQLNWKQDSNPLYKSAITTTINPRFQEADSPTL
protocol_notes: α4β7 integrin inhibition, IC50

| mol_smiles | IC50 |
| --- | --- |
| COc1cccc(-c2cc([C@H](CC(=O)O)NC(=O)Nc3c(O)c(C)cn(C)c3=O)ccc2OC)c1 | > 200 nM |
| COc1cccc(-c2cc(C)cc([C@H](CC(=O)O)NC(=O)Nc3c(O)ccn(C)c3=O)c2)c1 | < 200 nM |
| Cc1cn(C)c(=O)c(NC(=O)N[C@@H](CC(=O)O)c2cccc(-c3c(C)cccc3C)c2)c1O | < 200 nM |
| COc1cc(-c2c(C)cccc2C)cc([C@H](CC(=O)O)NC(=O)Nc2c(O)cc(C)n(C)c2=O)c1 | < 20 nM |
| COc1cc(-c2c(C)cccc2C)cc([C@H](CC(=O)O)NC(=O)Nc2c(O)ccn(C)c2=O)c1 | < 20 nM |
| Cn1ccc(O)c(NC(=O)N[C@@H](CC(=O)O)c2cccc(-c3ccc(F)cc3F)c2)c1=O | > 200 nM |
| Cc1cc(-c2cccc(OC(F)(F)F)c2)cc([C@H](CC(=O)O)NC(=O)Nc2c(O)ccn(C)c2=O)c1 | > 200 nM |
| Cn1ccc(O)c(NC(=O)N[C@@H](CC(=O)O)c2cccc(-c3c(Cl)cccc3Cl)c2)c1=O | < 200 nM |

This collection of values is drawn from patent US10875875B2.
